Sourced from paper PMC4336329

- Tested target: human ether-à-go-go-related gene (hERG) potassium channel (human);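 note: peak tail current of the secondary pulse compared with the same well before compound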
- Sequence (Q12809 whole entry, looked up): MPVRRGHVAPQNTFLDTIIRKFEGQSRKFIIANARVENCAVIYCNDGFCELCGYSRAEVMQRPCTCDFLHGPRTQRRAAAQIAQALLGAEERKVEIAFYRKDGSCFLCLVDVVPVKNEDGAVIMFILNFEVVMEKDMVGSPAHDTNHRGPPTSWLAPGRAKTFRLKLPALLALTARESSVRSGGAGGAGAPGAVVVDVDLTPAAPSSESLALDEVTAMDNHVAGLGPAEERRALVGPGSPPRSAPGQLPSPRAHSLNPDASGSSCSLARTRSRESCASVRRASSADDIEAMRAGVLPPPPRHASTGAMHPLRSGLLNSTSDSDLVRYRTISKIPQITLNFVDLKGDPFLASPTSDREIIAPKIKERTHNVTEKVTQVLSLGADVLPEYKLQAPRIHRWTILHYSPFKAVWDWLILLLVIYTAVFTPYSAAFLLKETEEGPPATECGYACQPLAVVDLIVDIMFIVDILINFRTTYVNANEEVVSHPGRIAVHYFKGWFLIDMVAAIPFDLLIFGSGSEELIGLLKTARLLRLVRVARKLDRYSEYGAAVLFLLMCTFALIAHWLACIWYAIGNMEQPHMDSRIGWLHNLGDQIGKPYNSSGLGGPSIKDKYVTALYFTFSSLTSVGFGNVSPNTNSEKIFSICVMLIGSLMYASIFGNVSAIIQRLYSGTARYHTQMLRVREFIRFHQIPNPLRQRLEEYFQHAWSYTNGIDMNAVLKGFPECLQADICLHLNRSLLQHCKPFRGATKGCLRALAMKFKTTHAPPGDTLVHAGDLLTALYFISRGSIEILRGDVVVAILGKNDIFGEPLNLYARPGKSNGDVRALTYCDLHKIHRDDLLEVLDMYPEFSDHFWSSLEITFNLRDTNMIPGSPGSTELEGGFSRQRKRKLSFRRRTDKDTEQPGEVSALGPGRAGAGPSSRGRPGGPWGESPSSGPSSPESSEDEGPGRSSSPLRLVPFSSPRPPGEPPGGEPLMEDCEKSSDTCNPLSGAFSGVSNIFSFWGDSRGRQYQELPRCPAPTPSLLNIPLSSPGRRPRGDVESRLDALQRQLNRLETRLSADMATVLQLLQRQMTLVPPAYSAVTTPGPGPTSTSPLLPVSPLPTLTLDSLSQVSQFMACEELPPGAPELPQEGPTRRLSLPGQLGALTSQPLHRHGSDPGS
- Protocol details: primary screen, population patch clamp on CHO cells stably expressing hERG; higher = less effect of the substance
In all, about 310,000 compounds went through this assay and about 14,000 (4.5%) showed an effect of 50% or more. Effects have a minus sign here. Many of the other results were omitted from the sample, so strong results are more common in it than they were.
Measurement type: hERG current change (%, negative = inhibition) at 10uM (%)

{"columns": ["Molecule", "Observed"],
 "data": [
  ["O=C(Cc1cccs1)N1CCCC(c2nc3c(nnn3Cc3ccc(F)cc3)c(=O)[nH]2)C1 (centres unmarked)", -35.1],
  ["Cc1ccc(C2(c3noc(CN4CCOCC4)n3)CCCC2)cc1", 17.3],
  ["CCC(Oc1ccccc1)C(=O)Nc1cc(Cl)ccc1-n1cncn1 (centres unmarked)", -14.1],
  ["O=C(NC1CCCC1)c1ccc(CS(=O)(=O)Cc2ccccc2F)o1", -7.89],
  ["COc1ccc(/C=C(\\C#N)C(=O)Nc2cc(S(=O)(=O)N3CCCCC3)ccc2N2CCCCC2)cc1", 6.92]
]}
